TEST_TARGET: T1, CRBN, Q96SW2;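 also: pooled lentiviral library of zinc finger degron-EGFP fusions in mCherry-positive Jurkat cells, FACS-sorted after compound exposure, with degron abundance counted by next-generation sequencing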
T1 chain: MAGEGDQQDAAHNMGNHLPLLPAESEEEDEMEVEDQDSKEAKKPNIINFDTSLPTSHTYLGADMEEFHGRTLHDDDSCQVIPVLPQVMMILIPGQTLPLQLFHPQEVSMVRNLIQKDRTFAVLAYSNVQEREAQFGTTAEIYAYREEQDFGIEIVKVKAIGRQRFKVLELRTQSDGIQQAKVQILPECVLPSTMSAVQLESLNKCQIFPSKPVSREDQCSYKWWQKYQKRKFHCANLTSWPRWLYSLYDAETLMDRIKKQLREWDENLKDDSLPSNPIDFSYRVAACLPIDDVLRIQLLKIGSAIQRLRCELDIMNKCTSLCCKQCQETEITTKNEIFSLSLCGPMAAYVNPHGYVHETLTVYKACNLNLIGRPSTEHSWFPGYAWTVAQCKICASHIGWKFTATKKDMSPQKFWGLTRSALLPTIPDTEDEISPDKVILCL
ASSAY_COMMENT: log2 fold change of degron read counts, EGFP-low vs EGFP+ sorted cells (limma voom), compound-induced degradation; higher = more compound-induced degradation of the degron-EGFP fusion; degrons are variants of IKZF1/3 zinc finger 2; compound dose not given here
CONDITION_LABEL: Jurkat; 18 h; compound: compound 22 (5-morpholino-thalidomide)
Whole data set: some 8,300 sequences, median “log2 fold change of degron read counts, EGFP-low vs EGFP+ sorted cells (limma voom), compound-induced degradation” near -1.1, cut for the highest 2% near 3.2. The sample holds the highest values, similar sequences and a random draw of the others, so the mix is not that of the screen.
MEASUREMENT_LABEL: log2 fold change of degron read counts

>>> endpoint_value("LDCEICGFRCTQKGNLLRHIKL [46L_47D_49E_50I_52G_53F_54R_55C_67L_, Q9UKT9]")
-0.499
>>> endpoint_value("LHCEICGFRCTQKGNLLRHIKL [46L_47H_49E_50I_52G_53F_54R_55C_67L_, Q9UKT9]")
2.4
>>> endpoint_value("LACEICGFRCTQKGNLLRHIKL [46L_47A_49E_50I_52G_53F_54R_55C_67L_, Q9UKT9]")
2.79
>>> endpoint_value("FHCDQCGAPFTQKGNLLRHIKL [46F_47H_49D_50Q_52G_53A_54P_55F_67L_, Q9UKT9]")
-1.82
>>> endpoint_value("FDCPICGALFTQKGNLLRHIKL [46F_47D_49P_50I_52G_53A_54L_55F_67L_, Q9UKT9]")
-0.888

Inquiry: Please report the measured log2 fold change of degron read counts for FSCDVCGAVFTQKGNLLRHIKL [46F_47S_49D_50V_52G_53A_54V_55F_67L_, Q9UKT9]
Reply text: -0.318

Inquiry: Item FSCNQCGRDFTQKGNLLRHIKL [46F_47S_49N_50Q_52G_53R_54D_55F_67L_, Q9UKT9] : provide log2 fold change of degron read counts
Reply text: -4.04
